Entry source: PubChem BioAssay (EPA / NIEHS)

- Target system: Nuclear receptor subfamily 1 group I member 3 (Homo sapiens)
- Experimental protocol: ATG_CAR_TRANS: Attagene TRANS-FACTORIAL HepG2 Assay for human Constitutive Androstane Receptor (CAR) (AID 2282969);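 further: activators raise reporter mRNA above DMSO so AC50 marks induction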
- Protocol conditions: HepG2 Attagene TRANS-FACTORIAL CAR reporter
Records with an inconclusive call do not appear. The source made the active and inactive calls. How the source made its calls: active means hit-call score of the fitted dose curve at least 0.9, where 1 is the maximum; inconclusive means response in the unintended direction; inactive means score below 0.9.
Assay endpoint: outcome

Consider the following illustrative entries.
[[record]]
molecule = "CCNC(=O)NC(=O)C(C#N)=NOC"
value_observed = "inactive"

[[record]]
molecule = "N#Cc1c(Cl)cccc1Cl"
value_observed = "inactive"

[[record]]
molecule = "CC1(C)C(C(=O)OC(C#N)c2cccc(Oc3ccccc3)c2)C1(C)C (stereo unspecified)"
value_observed = "inactive"

[[record]]
molecule = "COCC(=O)N(c1c(C)cccc1C)C(C)C(=O)OC (stereo unspecified)"
value_observed = "inactive"

[[record]]
molecule = "CC1(C)CCC(=Cc2ccc(Cl)cc2)C1(O)Cn1cncn1 (stereo unspecified)"
value_observed = "inactive"


Attention now shifts to the item below.
Query outcome on Nuclear receptor subfamily 1 group I member 3 (Homo sapiens) for Cc1c(COC(=O)[C@@H]2[C@H](/C=C(\Cl)C(F)(F)F)C2(C)C)cccc1-c1ccccc1
inactive
